# Procedure text: inhibition of endothelial tube formation, primary screen, imaging, VEGF stimulated, CD31 staining, tube area, NPC library (AID 1117340)
# Assay setup: VEGF-stimulated ADSC/ECFC co-culture, at 10 µM
Calls of active or inactive are those of the source.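 How the source made its calls: active means compound that reduces growth-factor-driven endothelial tube area in a mixed cell culture, no cutoff stated; inactive means the rest.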
Classes to choose from: active, inactive

Reference set, count: 2
In [3]: df
Out[3]:
                                   compound     group
0         O=C(O)c1ccccc1Nc1cc(Cl)ccc1C(=O)O  inactive
1  COc1cc([C@@H]2c3cc4c(cc3[C@@H](O[C@@H]3O[C@@H]5CO[C@@H](C)O[C@@H]5[C@H](O)[C@@H]3O)[C@H]3COC(=O)[C@H]23)OCO4)cc(OC)c1O    active

-- ask Write down the call the test reported for this compound. Item: CC(C)(C)c1cc(C=O)cc(C(C)(C)C)c1O
-- reply inactive

-- ask Write down the call the test reported for this compound. Item: CC(=O)O[C@H]1CC[C@@]2(C)C(=CC[C@@H]3[C@@H]2CC[C@]2(C)C(C(C)=O)=CC[C@@H]32)C1
-- reply inactive

-- ask Write down the call the test reported for this compound. Item: C/C(=C(\CCO)SS/C(CCO)=C(\C)N(C=O)Cc1cnc(C)nc1N)N(C=O)Cc1cnc(C)nc1N
-- reply inactive

-- ask Write down the call the test reported for this compound. Item: c1ccc(C(O[C@H]2CCCN(CCc3ccc4c(c3)OCO4)C2)c2ccccc2)cc1
-- reply inactive

-- ask Write down the call the test reported for this compound. Item: Cc1nc2ccccn2c(=O)c1CCN1CCC(C(=O)c2ccc(F)cc2)CC1
-- reply inactive

-- ask Write down the call the test reported for this compound. Item: CN(C)CCC[C@@]1(c2ccc(F)cc2)OCc2cc(C#N)ccc21
-- reply inactive

-- ask Write down the call the test reported for this compound. Item: CCCSc1ccc2nc(NC(=O)OC)[nH]c2c1
-- reply active

-- ask Write down the call the test reported for this compound. Item: CO/N=C(\C(=O)O)c1csc(NC(=O)CCl)n1
-- reply inactive

====

# Procedure text: stimulators of nuclear beta-catenin in C2C12, primary screen, imaging, WNT3A-conditioned medium, mouse C2C12, NPC library (AID 1117326); further: reference of the scale not given here
# Assay setup: stimulation, at 2 µM, stronger effect = higher value
Recorded nuclear beta-catenin stimulation for the following molecules

Known results for molecules:
In [3]: df
Out[3]:
                                   molecule                      assay_metric  result
0          CCN(CC)CC(=O)Nc1c(C)cccc1C(=O)OC  nuclear beta-catenin stimulation    0.3%
1  CCCCC1=NC2(CCCC2)C(=O)N1Cc1ccc(-c2ccccc2-c2nn[nH]n2)cc1  nuclear beta-catenin stimulation    0.1%
2  Cc1[nH]cnc1C[C@H]1CCc2c(C)c3ccccc3n2C1=O  nuclear beta-catenin stimulation    0.9%
3  COc1ccc2c(c1)c(CC(=O)OC/C=C(\C)CC/C=C(\C)CCC=C(C)C)c(C)n2C(=O)c1ccc(Cl)cc1  nuclear beta-catenin stimulation      3%
4                   NC(=O)CC[C@@H](N)C(=O)O  nuclear beta-catenin stimulation    3.8%

-- ask Quick one: nuclear beta-catenin stimulation of CCCc1c2oc(C(=O)O)cc(=O)c2cc2c(=O)cc(C(=O)O)n(CC)c12 ?
-- reply -1%

-- ask Quick one: nuclear beta-catenin stimulation of CCCCOC(=O)CCCCCCCCC(=O)OCCCC ?
-- reply 1%

-- ask Quick one: nuclear beta-catenin stimulation of CCCc1ccc(C(=O)O)cc1 ?
-- reply 2.4%

-- ask Quick one: nuclear beta-catenin stimulation of O=C(O)c1ccccc1-c1ccc(C(F)(F)F)cc1 ?
-- reply 0.7%

-- ask Quick one: nuclear beta-catenin stimulation of NCCNc1cccc2ccccc12 ?
-- reply 1.1%

-- ask Quick one: nuclear beta-catenin stimulation of C#Cc1ccc(-c2ccccc2F)cc1 ?
-- reply -2.1%

-- ask Quick one: nuclear beta-catenin stimulation of OCC(O)CS (stereo not drawn) ?
-- reply 0.8%

-- ask Quick one: nuclear beta-catenin stimulation of COC(=O)CCC(=O)CN ?
-- reply 0.1%

====

# Procedure text: IRF3 reporter activation in THP-1 macrophages, cell-based, PMA-stimulated THP-1, luminescence (AID 1053176)
# Assay setup: PMA-differentiated THP-1, IRF3 reporter luminescence; stronger effect = higher value
# cutoff 0.002 applies to fraction signal; >= gives class 1, < gives class 0

Reference set, count: 8
>>> df
                           structure_string    group
0  COc1cc2ncn(-c3cc(OCc4ccccc4C(F)(F)F)c(C(=O)N(C)C)s3)c2cc1OC  class 0
1  Nc1c(C(=O)c2ccc(C#CCN3CCOCC3)cc2)cnn1-c1ccc(F)cc1  class 1
2  Cc1c(C2=C(c3cn(C)c4ccccc34)C(=O)NC2=O)c2ccccc2n1C  class 0
3  FC(F)(F)c1cccc(-c2nn3ncccc3c2-c2ccnc(Nc3ccc4c(c3)OCCO4)n2)c1  class 1
4  O/N=C1/CCc2cc(-c3nc(C4CCNCC4)[nH]c3-c3ccncc3)ccc21  class 0
5   Cc1nc(-c2ccccc2)n2nc(NCCCN3CCOCC3)ncc12  class 0
6  CC(C)c1ccc(Nc2nccc(-c3cnn4ncccc34)n2)cc1  class 0
7  COC(=O)Nc1nc2ccc(Oc3cccc(NC(=O)Nc4cc(C(F)(F)F)ccc4F)c3)cc2[nH]1  class 0

-- ask Is it the case that COc1cc(Nc2ncc(-c3ccccc3)o2)cc(OC)c1OC has fraction signal reaching or exceeding 0.002?
-- reply class 0

-- ask Is it the case that CNC(=O)c1cncc(/C=C/c2c(C)cccc2C)c1 has fraction signal reaching or exceeding 0.002?
-- reply class 1

====

# Procedure text: inhibitors of polyQ protein aggregation (AID 1604)
# Assay setup: polyglutamine-induced protein aggregation inhibition assay; stronger effect = higher value; concentration not given here
Recorded inhibition of aggregation for the following compounds
Record the value in %, omitting the unit from your answer.

>>> print(df.to_string())
                                   compound  reading_unit  quantitative_result
0  CCCNC(C)C(=O)Nc1ccccc1C (centres undefined)             %                 74.9

-- ask Quick one: inhibition of aggregation of OC(CCN1CCCC1)(c1ccccc1)C1CCCCC1 (centres undefined) ?
-- reply 69.2

====

# Subject of test: Cellular tumor antigen p53 (Homo sapiens)
# Procedure text: kinase inhibitors altering GFP-p53 stability in HPV16-positive cells, imaging, known kinase inhibitor set, EGFP/DsRed ratio (AID 1053116);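 further: cells exposed to compounds for 24 h at 37 °C before reading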
# Assay setup: stronger effect = higher value
# cutoff 0.1 applies to EGFP/DsRed ratio; >= gives Y, < gives N

Reference set, count: 10
>>> print(df.to_string())
                                   molecule  group
0  O=C1NC(=NCCc2cccc(Cl)c2)SC1=Cc1ccc2ncccc2c1      Y
1  O=C1NC(=NCc2ccccc2Br)SC1=Cc1ccc2ncccc2c1      Y
2  COc1ccc2c(-c3ccnc(Nc4cccc(OC(F)(F)F)c4)n3)cnn2n1      N
3    O=C1NC(=NCc2ccccc2)SC1=Cc1ccc2ncccc2c1      Y
4  Cn1cc(C2=C(c3cn(CCCCCSC(=N)N)c4ccccc34)C(=O)NC2=O)c2ccccc21      N
5  NS(=O)(=O)c1ccc(-c2cc3ccncc3cc2OCc2ccccc2)cc1      N
6  C[C@@H](Oc1cc(-n2cnc3ccc(OCC4CCN(C)CC4)cc32)sc1C(N)=O)c1ccccc1C(F)(F)F      Y
7  CC(=O)N[C@H](Cc1ccc(OP(=O)(O)O)cc1)C(=O)N[C@@H]1CCC(=O)N2CCC[C@@H](C(=O)N[C@H]3CCc4ccccc43)N2C1=O      Y
8  COC(=O)Nc1nc2ccc(Oc3ccc(NC(=O)Nc4cccc(Cl)c4)cc3)cc2[nH]1      Y
9      CNC(=O)c1cncc(/C=C/c2c(Cl)cccc2Cl)c1      Y

-- ask Is it the case that Cc1ccc(NC(=O)c2ccoc2)cc1-c1ccc(C(=O)NCC2CC2)cc1 has EGFP/DsRed ratio reaching or exceeding 0.1?
-- reply N

====

Recorded inhibition for the following molecules
# System: Hepatitis C virus NS3 helicase
# Procedure text: HCV NS3 helicase inhibitors, primary screen, biochemical, fluorescence polarization, NIH Clinical Collection (AID 743270)
# Assay setup: NS3 helicase binding to Cy5-dT15 DNA, stronger effect = higher value, concentration not given here
Record the value in %, omitting the unit from your answer.

In [3]: df
Out[3]:
                                   molecule  assay_metric  reading_unit  quantitative_result
0  COc1ccccc1OCCNCC(O)COc1cccc2[nH]c3ccccc3c12 (stereo not drawn)    inhibition             %                 1.19
1  NS(=O)(=O)c1cc(C2(O)NC(=O)c3ccccc32)ccc1Cl (stereo not drawn)    inhibition             %                -2.27
2  O=C1c2c(O)ccc(O)c2C(=O)c2c(NCCNCCO)ccc(NCCNCCO)c21    inhibition             %                  128

-- ask Quick one: inhibition of N[C@@H](Cc1cc(I)c(Oc2cc(I)c(O)c(I)c2)c(I)c1)C(=O)O ?
-- reply 0.45

-- ask Quick one: inhibition of CC1(C)O[C@@H]2C[C@H]3[C@@H]4C[C@H](F)C5=CC(=O)C=C[C@]5(C)[C@H]4[C@@H](O)C[C@]3(C)[C@]2(C(=O)CO)O1 ?
-- reply -0.45

-- ask Quick one: inhibition of CC(=O)O[C@]1(C(C)=O)CC[C@H]2[C@@H]3C=C(C)C4=CC(=O)CC[C@]4(C)[C@H]3CC[C@@]21C ?
-- reply 3.56

-- ask Quick one: inhibition of CCN(CC)CCOC(=O)c1ccc(N)cc1 ?
-- reply -3.18

-- ask Quick one: inhibition of Cc1ccc(-c2cc(C(F)(F)F)nn2-c2ccc(S(N)(=O)=O)cc2)cc1 ?
-- reply -14.1

-- ask Quick one: inhibition of O=C1NC(=O)C(c2ccccc2)(c2ccccc2)N1 ?
-- reply -2.27

-- ask Quick one: inhibition of CCCc1cc(=O)[nH]c(=S)[nH]1 ?
-- reply -1.36

-- ask Quick one: inhibition of NS(=O)(=O)c1cc2c(cc1C(F)(F)F)NCNS2(=O)=O ?
-- reply -3.18

-- ask Quick one: inhibition of C=C(CC)C(=O)c1ccc(OCC(=O)O)c(Cl)c1Cl ?
-- reply -4.09

-- ask Quick one: inhibition of CC(C)(C)NCC(O)COc1cccc2c1C[C@H](O)[C@H](O)C2 (stereo partly drawn) ?
-- reply -1.36

-- ask Quick one: inhibition of CN(C)CC/C=C1\c2ccccc2COc2ccccc21 ?
-- reply -1.36

-- ask Quick one: inhibition of Cn1cnc([N+](=O)[O-])c1Sc1ncnc2nc[nH]c12 ?
-- reply -3.18

-- ask Quick one: inhibition of C#C[C@]1(O)CC[C@H]2[C@@H]3CCC4=Cc5oncc5C[C@]4(C)[C@H]3CC[C@@]21C ?
-- reply -3.18

-- ask Quick one: inhibition of c1ccc(CC2=NCCN2)cc1 ?
-- reply -2.27

-- ask Quick one: inhibition of NS(=O)(=O)c1cc2c(cc1Cl)NC=NS2(=O)=O ?
-- reply -5

-- ask Quick one: inhibition of Cc1cccc(CN2CCN(C(c3ccccc3)c3ccc(Cl)cc3)CC2)c1 (stereo not drawn) ?
-- reply -3.18

-- ask Quick one: inhibition of CC1=NS(=O)(=O)c2cc(Cl)ccc2N1 ?
-- reply 5.94
